Assay: Cytotoxicity against LPS/IFNgamma-stimulated mouse RAW264.7 cells assessed as reduction in cell viability after 24 hrs by Alamar Blue assay
Format: toxicity, cell-based
Conditions: LPS/IFNgamma-stimulated RAW264.7 cells, read-out: LC50
Task for the reader: assign each of the following molecules its reported CC50 at 24 h.
One number for each entry, in µM.

>>> print(df.to_string())
                                   molecule  reported_endpoint  unit_of_measure  assay_value
0  O=C1C=CC[C@H](CC(O)/C=C/C[C@H](O)C[C@@H](O)CC/C=C/c2ccccc2)O1 (some centres undefined)       CC50 at 24 h               µM          159
1  O=C1C=CC[C@H](/C=C/C=C/C[C@H](O)C[C@@H](O)CC/C=C/c2ccccc2)O1       CC50 at 24 h               µM         41.3

Quick one: CC50 at 24 h for O=C1C=CC[C@H](CCC[C@H](O)C[C@@H](O)CC/C=C/c2ccccc2)O1 ?
33.4

----------
Experiment: Cytotoxicity against LPS/IFNgamma-stimulated mouse RAW264.7 cells assessed as reduction in cell viability after 24 hrs by Alamar Blue assay
Format: toxicity, cell-based
Settings: LPS/IFNgamma-stimulated RAW264.7 cells, read-out: LC50
Reported endpoint: CC50 at 24 h (µM)
Give bare numbers, in µM.

// solved cases for CC50 at 24 h follow
>>> df
                            compound_smiles  assay_value
0  O=C1C=CC[C@H](/C=C/C[C@H](O)C[C@@H](O)CC/C=C/c2ccccc2)O1         79.8
1  O=C1C=CC[C@H](C[C@H](O)C[C@@H](O)CC/C=C/c2ccccc2)O1         37.6

Could you report CC50 at 24 h for every entry in the following list?
1. O=C1C=CC[C@H](C[C@@H](O)CCC[C@H](O)C[C@@H](O)CC/C=C/c2ccccc2)O1
2. CC(=O)O[C@H](C[C@@H](O)CC/C=C/c1ccccc1)C[C@H]1CC=CC(=O)O1
3. COc1cc(/C=C/C(=O)CC(=O)/C=C/c2ccc(O)c(OC)c2)ccc1O

[41.3, 97.9, 73]

----------
Assay: Therapeutic index, ratio of LC50 for cytotoxicity against LPS/IFNgamma-stimulated mouse RAW264.7 cells to IC50 for inhibition of NO production in LPS/IFNgamma-stimulated mouse RAW264.7 cells
Format: toxicity, cell-based
Details: LPS/IFNgamma-stimulated RAW264.7 cells, read-out: Ratio LC50/IC50
Reported endpoint: selectivity ratio
One number for each entry.

Some solved cases for reference:
                                   molecule  assay_value
0  O=C1C=CC[C@H](CC(O)/C=C/C[C@H](O)C[C@@H](O)CC/C=C/c2ccccc2)O1 (some centres undefined)          2.5
1  O=C1C=CC[C@H](CCC[C@H](O)C[C@@H](O)CC/C=C/c2ccccc2)O1          5.6
2  O=C1C=CC[C@H](C[C@@H](O)CCC[C@H](O)C[C@@H](O)CC/C=C/c2ccccc2)O1          2.8
3  O=C1C=CC[C@H](/C=C/C[C@H](O)C[C@@H](O)CC/C=C/c2ccccc2)O1         10.9
4  O=C1C=CC[C@H](/C=C/C=C/C[C@H](O)C[C@@H](O)CC/C=C/c2ccccc2)O1          7.6
5  O=C1C=CC[C@H](C[C@H](O)C[C@@H](O)CC/C=C/c2ccccc2)O1          6.8
6  COc1cc(/C=C/C(=O)CC(=O)/C=C/c2ccc(O)c(OC)c2)ccc1O          3.2

Next, consider the following molecule.
Dear colleague, I am looking for the recorded selectivity ratio of the following molecule: CC(=O)O[C@H](C[C@@H](O)CC/C=C/c1ccccc1)C[C@H]1CC=CC(=O)O1
9.5
